Where do the numbers come from? From patent US11524966B1.

Molecular target: USP25 (USP25-His6, Boston Biochem E-546) (Homo sapiens, UniProt Q9UHP3)
Construct: His6; purchased Boston Biochem E-546
Sequence (Q9UHP3 whole entry): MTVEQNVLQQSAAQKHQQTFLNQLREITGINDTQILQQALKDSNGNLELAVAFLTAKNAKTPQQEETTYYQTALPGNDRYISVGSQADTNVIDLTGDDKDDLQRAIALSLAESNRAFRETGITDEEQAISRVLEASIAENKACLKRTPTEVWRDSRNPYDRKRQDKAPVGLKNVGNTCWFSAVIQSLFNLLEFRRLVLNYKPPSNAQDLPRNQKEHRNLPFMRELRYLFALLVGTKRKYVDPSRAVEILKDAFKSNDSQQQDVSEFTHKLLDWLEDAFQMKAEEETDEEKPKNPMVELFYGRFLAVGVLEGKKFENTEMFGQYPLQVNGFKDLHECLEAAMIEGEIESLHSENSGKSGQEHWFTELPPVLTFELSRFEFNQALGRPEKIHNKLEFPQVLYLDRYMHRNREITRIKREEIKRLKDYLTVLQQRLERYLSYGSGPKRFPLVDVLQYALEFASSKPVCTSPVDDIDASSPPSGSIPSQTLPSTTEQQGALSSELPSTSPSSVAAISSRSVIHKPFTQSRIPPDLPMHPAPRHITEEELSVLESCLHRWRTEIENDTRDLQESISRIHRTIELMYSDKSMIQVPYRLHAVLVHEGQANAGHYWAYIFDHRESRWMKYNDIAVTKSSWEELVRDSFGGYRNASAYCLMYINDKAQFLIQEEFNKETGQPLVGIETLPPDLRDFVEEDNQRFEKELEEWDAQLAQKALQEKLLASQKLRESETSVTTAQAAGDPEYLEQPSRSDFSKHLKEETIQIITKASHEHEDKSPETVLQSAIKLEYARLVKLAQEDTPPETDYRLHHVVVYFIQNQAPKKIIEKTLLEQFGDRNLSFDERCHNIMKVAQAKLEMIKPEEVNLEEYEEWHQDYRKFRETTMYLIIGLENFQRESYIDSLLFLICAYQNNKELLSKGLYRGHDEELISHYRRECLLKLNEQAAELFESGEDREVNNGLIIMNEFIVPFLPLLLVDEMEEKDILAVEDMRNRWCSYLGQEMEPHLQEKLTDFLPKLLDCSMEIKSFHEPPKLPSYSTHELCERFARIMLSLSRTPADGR
Assay: Ubiquitin-Rhodamine 110 Assay for USP25 Activity, Example A-2
Type: biochemical
Settings: Ubiquitin-Rhodamine 110 assay, Example A-2; read-out: USP25 A-2 IC50 range
pIC50: −log10 of the molar value.
For each of the molecules below, state its pIC50.

Here is how some molecules turned out for pIC50.
[[record]]
input_smiles = "Cc1cnc2c(N)c(C(=O)N[C@H]3CCc4cc(N5C[C@H](OC(C)C)[C@@H](N)C5)ccc4C3)sc2n1"
tested_target = "USP25 (USP25-His6, Boston Biochem E-546) (Homo sapiens, UniProt Q9UHP3)"
measurement_kind = "pIC50"
measured_result = "< 5.70"

[[record]]
input_smiles = "O=C(N[C@H]1COc2cc(N3CCNCC3)ccc2C1)c1cnn2cccnc12"
tested_target = "USP25 (USP25-His6, Boston Biochem E-546) (Homo sapiens, UniProt Q9UHP3)"
measurement_kind = "pIC50"
measured_result = "< 5.70"

[[record]]
input_smiles = "Cc1ccc2c(N)c(C(=O)N[C@H]3COc4cc(N5C[C@@H](N)[C@@]6(CCO6)C5)ccc4C3)sc2n1"
tested_target = "USP25 (USP25-His6, Boston Biochem E-546) (Homo sapiens, UniProt Q9UHP3)"
measurement_kind = "pIC50"
measured_result = "5.70 to 6.70"

[[record]]
input_smiles = "Cc1ccc2c(N)c(C(=O)N[C@H]3COc4nc(N5CC6CCC(C5)N6)ccc4C3)sc2n1"
tested_target = "USP25 (USP25-His6, Boston Biochem E-546) (Homo sapiens, UniProt Q9UHP3)"
measurement_kind = "pIC50"
measured_result = "5.70 to 6.70"


Hi, could you look up pIC50 for each item in my list?
1. CO[C@H]1CN(c2ccc3c(n2)CC[C@H](NC(=O)c2sc4nc(C)c(F)cc4c2N)C3)C[C@@H]1N
2. Cc1ccc2c(N)c(C(=O)N[C@H]3COc4cc(N5CC[C@@H]6CCNC[C@@H]65)ccc4C3)sc2n1
3. Cc1ccc2c(N)c(C(=O)N[C@@H]3Cc4ccc(N5CCNCC5)nc4[C@H](C)C3)sc2n1

Completion:
< 5.70
7.30 to 9.00
< 5.70

----------
For each of the molecules below, state its IC50.
Target: USP25 (USP25-His6, Boston Biochem E-546) (Homo sapiens)
Construct: His6; purchased Boston Biochem E-546
Experiment: Ubiquitin-Rhodamine 110 Assay for USP25 Activity, Example A-2
Assay type: biochemical
Details: Ubiquitin-Rhodamine 110 assay, Example A-2; read-out: USP25 A-2 IC50 range

Here is how some molecules turned out for IC50.
[[record]]
molecule = "Cc1ccc2c(N)c(C(=O)N[C@H]3CCc4nc(N5C[C@H](N)[C@H](OC(C)(F)F)C5)ccc4C3)sc2n1"
measurement_kind = "IC50"
measured_result = "200 to 2000 nM"

[[record]]
molecule = "Cc1ccc2c(N)c(C(=O)N[C@H]3COc4cc(N5C[C@H](OC(C)C)[C@@H](N)C5)ccc4C3)sc2n1"
measurement_kind = "IC50"
measured_result = "200 to 2000 nM"

[[record]]
molecule = "Cc1ccc2c(N)c(C(=O)N[C@H]3COc4cc(N5CCNCC5)cc(Cl)c4C3)sc2n1"
measurement_kind = "IC50"
measured_result = "50 to 200 nM"

[[record]]
molecule = "O=C(N[C@@H]1CCc2cc(N3CC4CCC(C3)N4)cc(F)c2C1)c1cnc2c(c1)[C@@H]1C[C@@H]1CN2"
measurement_kind = "IC50"
measured_result = "> 2000 nM"

[[record]]
molecule = "Cc1ccc2c(N)c(C(=O)N[C@H]3CCc4nc(N5C[C@@H](N)[C@@]6(CCCO6)C5)ccc4C3)sc2n1"
measurement_kind = "IC50"
measured_result = "> 2000 nM"

[[record]]
molecule = "COc1ccc2c(N)c(C(=O)N[C@H]3CCc4cc(N5C[C@H](OC)[C@@H](N)C5)ccc4C3)sc2n1"
measurement_kind = "IC50"
measured_result = "> 2000 nM"


Hi, could you look up IC50 for each item in my list?
1. Cc1cnc2c(N)c(C(=O)N[C@H]3CCc4nc(N5C[C@@H](N)C6(COC6)C5)ccc4C3)sc2n1
2. CO[C@@H]1CN(c2ccc3c(c2)OC[C@H](NC(=O)c2sc4nc(C)ccc4c2N)C3)C[C@@H]1N
3. Cc1cnc2c(N)c(C(=O)N[C@H]3COc4cc(N5CC6CCC(C5)N6)c(F)cc4C3)sc2n1 (single isomer, unassigned)

Completion:
> 2000 nM
200 to 2000 nM
50 to 200 nM
